Biological target: UniProt P51686
Sequence (P51686 whole entry): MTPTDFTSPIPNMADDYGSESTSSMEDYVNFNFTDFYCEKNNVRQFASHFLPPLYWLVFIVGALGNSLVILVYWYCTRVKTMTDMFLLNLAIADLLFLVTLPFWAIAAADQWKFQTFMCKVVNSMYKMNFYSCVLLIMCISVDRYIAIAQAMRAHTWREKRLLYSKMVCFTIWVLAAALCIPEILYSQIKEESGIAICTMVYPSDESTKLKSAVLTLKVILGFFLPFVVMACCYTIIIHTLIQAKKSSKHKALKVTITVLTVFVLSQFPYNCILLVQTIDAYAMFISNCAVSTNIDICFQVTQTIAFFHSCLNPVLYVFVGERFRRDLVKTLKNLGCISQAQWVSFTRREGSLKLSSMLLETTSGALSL
Assay: FLIPR calcium flux assay using MOLT4 cells (TECK stimulation)
Format: cell-based
Parameters: endogenous in cells; host or cells: MOLT4 (human T-cell line)
Details: MOLT4 cells (a human T-cell line); Ki determined from IC50 of TECK-induced intracellular calcium increase
pKi: −log10 of the molar value.
Assign fulfilled whenever pKi does not fall below 7; assign not fulfilled whenever it does.

As a guide, the following entries are already answered.
I'd appreciate it if you could say whether CC(C)(C)c1cccc(S(=O)(=O)Nc2ccnc3cc(C4CC4)nn23)c1 [Compound 44] has pKi at least equal to 7.
not fulfilled

I'd appreciate it if you could say whether COc1ccc(-c2cc3c(C#N)ccc(NS(=O)(=O)c4ccc(C(C)(C)C)cc4)n3n2)cn1 [Compound 198] has pKi at least equal to 7.
fulfilled

I'd appreciate it if you could say whether CC(C)(C)c1ccc(S(=O)(=O)Nc2ccnc3cc(C4CC4)nn23)cc1 [Compound 37] has pKi at least equal to 7.
not fulfilled

I'd appreciate it if you could say whether Cc1cc2nccc(NS(=O)(=O)c3ccc(C(C)(C)C)cc3)n2n1 [Compound 3] has pKi at least equal to 7.
not fulfilled

I'd appreciate it if you could say whether Cn1ccc(-c2cc3c(C#N)ccc(NS(=O)(=O)c4ccc(C(C)(C)C)cc4)n3n2)n1 [Compound 184] has pKi at least equal to 7.
fulfilled

Others:
I'd appreciate it if you could say whether Cc1c(-c2cc3c(C#N)ccc(NS(=O)(=O)c4ccc(C(C)(C)C)cc4)n3n2)cnn1C [Compound 190] has pKi at least equal to 7.
fulfilled

I'd appreciate it if you could say whether CCc1cc2c(Cl)ccc(NS(=O)(=O)c3ccc(C(F)(F)F)cc3)n2n1 [Compound 106] has pKi at least equal to 7.
not fulfilled
